All figures here come from the supplement of paper PMC10567573.

# protein stability index per entry
B1: KCNA1 (parent)
chain: LKASMRELGLLIFFLFIGVILFSS

Variants of: B1
test_description: protein stability index of a GFP-peptide fusion (GPS, HEK-293T) (PSI 1-6); higher = more stable;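 further: lentivirally expressed fusions sorted by FACS into six bins by GFP to DsRed ratio, PSI derived from sequencing read proportions per bin multiplied by bin number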
condition_context: c terminus: a fixed tail appended
parameter: protein stability index

1) LFASMRELGLLIFFLFIGVILFSS [K2F] | 2
2) LKASMRELGLLIFFGFIGVILFSS [L15G] | 2.53
3) LKASMREEGLLIFFLFIGVILFSS [L8E] | 4
4) LKASMRELGLLIFALFIGVILFSS [F14A] | 4.15
5) LKASMREQGLLIFFLFIGVILFSS [L8Q] | 2.55
6) LKASMRELYLLIFFLFIGVILFSS [G9Y] | 2.34
7) LKASMRELGLLIFFLFIGVILFSP [S24P] | 3.1
8) LKASMRSLGLLIFFLFIGVILFSS [E7S] | 1.88
9) LKASMRELGLLIFRLFIGVILFSS [F14R] | 2.41
10) LKASMRELGLLIFFLFIGVILWSS [F22W] | 2.75
11) LKASMRELWLLIFFLFIGVILFSS [G9W] | 1.54
12) LKASMRELGLLIFFLTIGVILFSS [F16T] | 2.77
13) LKASMKELGLLIFFLFIGVILFSS [R6K] | 1.61
14) LKASMRELGLLIFFLFWGVILFSS [I17W] | 3.85
15) LKASMRELGLLIKFLFIGVILFSS [F13K] | 2.76
16) LKASMRELGLLIFFLFIGVIGFSS [L21G] | 3.19
17) LKASMRELGLDIFFLFIGVILFSS [L11D] | 3.53
18) LKASMREPGLLIFFLFIGVILFSS [L8P] | 3.22
19) LQASMRELGLLIFFLFIGVILFSS [K2Q] | 3.04
20) LKASMRELRLLIFFLFIGVILFSS [G9R] | 2.48
21) LKASMRELGLLWFFLFIGVILFSS [I12W] | 3.17
22) LKTSMRELGLLIFFLFIGVILFSS [A3T] | 2.12
23) LKASMRELGLLIFFLFIGLILFSS [V19L] | 1.59
24) LKASMRELGLLIFFLFIGYILFSS [V19Y] | 1.86
25) LKASMRELGALIFFLFIGVILFSS [L10A] | 2.62
26) LKASMREMGLLIFFLFIGVILFSS [L8M] | 2.26
27) LKASMRELGRLIFFLFIGVILFSS [L10R] | 2.83
28) LKASMRELGLLIFFLFIGVILFSL [S24L] | 1.47
29) LWASMRELGLLIFFLFIGVILFSS [K2W] | 2.4
30) LKASMRELGLLIFFLFIGVICFSS [L21C] | 2.43
31) LKASMRELGLLIFFLFIGVILFSM [S24M] | 2.42
32) LKASMRELGLLIFFLFYGVILFSS [I17Y] | 2.24
33) WKASMRELGLLIFFLFIGVILFSS [L1W] | 1.56
34) LKASMRTLGLLIFFLFIGVILFSS [E7T] | 2.01
35) LKASMRELGSLIFFLFIGVILFSS [L10S] | 2.77
36) LKASMRELGLLIFFLFIGVINFSS [L21N] | 2.64
37) LRASMRELGLLIFFLFIGVILFSS [K2R] | 2.32
38) LKASMRELGLLMFFLFIGVILFSS [I12M] | 2.02
39) LKASMRELTLLIFFLFIGVILFSS [G9T] | 1.72
40) LKASMRELGLLIQFLFIGVILFSS [F13Q] | 4.29
